# Study Target: T1, human TREM2 (human, UniProt Q9NZC2 19-174, limits assumed)
# T1 construct: also called triggering receptor expressed on myeloid cells 2
# T1 sequence: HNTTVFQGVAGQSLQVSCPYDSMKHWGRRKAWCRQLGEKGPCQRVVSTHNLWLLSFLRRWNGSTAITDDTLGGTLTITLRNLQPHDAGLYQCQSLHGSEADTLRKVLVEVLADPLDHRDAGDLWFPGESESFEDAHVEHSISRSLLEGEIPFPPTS
# Assay Info: 2nd screen, 100 nM
Readout Kind: Binding Signal

The examples below pair each entry with its known result.
V90 (antibody, V domains shown, also called 6E7 variant V90; LV-206/HV-206) VH: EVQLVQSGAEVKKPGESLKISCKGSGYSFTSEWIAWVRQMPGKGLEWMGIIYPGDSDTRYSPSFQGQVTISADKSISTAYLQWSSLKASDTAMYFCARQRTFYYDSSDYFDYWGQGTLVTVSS VL: DIQMTQSPSSVSASVGDRVTITCRASQGISRWLAWYQQKPGKAPKLLIYAASSLQNGVPSRFSGSGSGTDFTLTISSLQPEDFATYFCQQADSFPRTFGQGTKLEIK | 0.36 fold over 6E7 parental antibody
V69 (antibody, V domains shown, also called 6E7 variant V69) VH: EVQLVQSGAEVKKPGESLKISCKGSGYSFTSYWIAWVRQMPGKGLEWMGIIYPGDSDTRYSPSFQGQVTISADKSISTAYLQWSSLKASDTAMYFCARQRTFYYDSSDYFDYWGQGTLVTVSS VL: DIQMTQSPSSVSASVGDRVTITCRASQGISSYLAWYQQKPGKAPKLLIYAASSLQNGVPSRFSGSGSGTDFTLTISSLQPEDFATYFCQQADSFPRTFGQGTKLEIK | 0.4 fold over 6E7 parental antibody

Could you now consider this next binder?
Ask: Item V47 (antibody, V domains shown, also called 6E7 variant V47) VH: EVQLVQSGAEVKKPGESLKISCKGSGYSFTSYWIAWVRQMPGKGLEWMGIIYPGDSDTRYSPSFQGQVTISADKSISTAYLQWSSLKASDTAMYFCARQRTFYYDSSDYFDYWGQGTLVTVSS VL: DIQMTQSPSSVSASVGDRVTITCRASQGISSWLAWYQQKPGKAPKLLIYAASSLQNGVPSRFSGSGSGTDFTLTISSLQPEDFATYFCQQADSFPMTFGQGTKLEIK has what recorded Binding Signal?
Result: 0.47 fold over 6E7 parental antibody
